Experiment: Inhibition of trypsin-like activity of rabbit 20S proteasome
Parameters: species or system Oryctolagus cuniculus
QUANTITY KIND: IC50 (nM)
Response body: numeric value in nM, unit text excluded.

Answer with reported IC50 of C[C@@]12OC(=O)[C@]1([C@@H](O)[C@@H]1C=CCCC1)NC(=O)[C@@H]2CCCl [MARIZOMIB]
34

* * *

Test system: RPMI-8226
Test: Cytotoxicity against human RPMI8226 cells after 48 hrs by resazurin assay
Format: functional, cell-based
Conditions: rpmi-8226
QUANTITY KIND: pIC50
Worth noting: pIC50 values are minus log10 of concentrations stated in mol/L.

Answer with reported pIC50 of CC(C)[C@H](O)[C@@]12NC(=O)[C@H](CCCl)[C@]1(C)OC2=O [ANTIPROTEALIDE]
6.55
